Sourced from ChEMBL document CHEMBL1811910

tested on: PC-3; assay: Antiproliferative activity against human PC3 cells at 5 to 50 uM after 24 hrs by MTT assay; type: functional, cell-based
Active and inactive are the calls of the source. The rule behind the calls is not given here.
endpoint: Activity

[[record]]
smiles_notation = "C=C1CC/C=C(\\C)CCC2=C(C)C(=O)O[C@H]2/C=C(\\C)CCC1=O"
endpoint = "Activity"
endpoint_value = "inactive"

[[record]]
smiles_notation = "C=C1CC/C=C(\\C)CCC2=C(C)C(=O)O[C@H]2/C=C(\\C)CC[C@@H]1O"
endpoint = "Activity"
endpoint_value = "inactive"

[[record]]
smiles_notation = "CC1=C2CC/C(C)=C/CC[C@]3(C)O[C@H]3CC/C(C)=C/[C@@H]2OC1=O"
endpoint = "Activity"
endpoint_value = "inactive"

[[record]]
smiles_notation = "C=C1CC/C=C(\\C)CCC2=C(C)C(=O)O[C@H]2/C=C(\\C)CC[C@@H]1OC(=O)NCCCCl"
endpoint = "Activity"
endpoint_value = "inactive"

[[record]]
smiles_notation = "C=CCNC(=O)N(CC=C)C(=O)N(CC=C)C(=O)O[C@H]1CC/C(C)=C/[C@@H]2OC(=O)C(C)=C2CC/C(C)=C/CCC1=C"
endpoint = "Activity"
endpoint_value = "inactive"

[[record]]
smiles_notation = "CO[C@H]1CC/C(C)=C/[C@@H]2OC(=O)C(C)=C2CC/C(C)=C/CC[C@]1(C)O"
endpoint = "Activity"
endpoint_value = "inactive"

[[record]]
smiles_notation = "CC1=C2CC/C(C)=C/CC[C@]3(C)O[C@H]3CC/C(C)=C\\[C@H]2OC1"
endpoint = "Activity"
endpoint_value = "inactive"

[[record]]
smiles_notation = "CC1=C2CC/C(C)=C/CC[C@](C)(O)[C@@H](O)CC/C(C)=C/[C@@H]2OC1=O"
endpoint = "Activity"
endpoint_value = "inactive"

[[record]]
smiles_notation = "CCCO[C@H]1CC/C(C)=C/[C@@H]2OC(=O)C(C)=C2CC/C(C)=C/CC[C@]1(C)O"
endpoint = "Activity"
endpoint_value = "inactive"


====

test system: PC-3; assay: Antimigratory activity against human PC3 cells after 24 hrs by wound healing assay; assay type: functional, cell-based; details: PC-3, 24 h
endpoint: IC50

[[record]]
smiles_notation = "C=C1CC/C=C(\\C)CCC2=C(C)C(=O)O[C@H]2/C=C(\\C)CC[C@@H]1OC(=O)NC1CCCCC1"
endpoint_value = "15.5 µM"

[[record]]
smiles_notation = "C=CCNC(=O)N(CC=C)C(=O)N(CC=C)C(=O)O[C@H]1CC/C(C)=C/[C@@H]2OC(=O)C(C)=C2CC/C(C)=C/CCC1=C"
endpoint_value = "24.3 µM"

[[record]]
smiles_notation = "C=C1CC/C=C(\\C)CCC2=C(C)C(=O)O[C@H]2/C=C(\\C)CC[C@@H]1OC(=O)Nc1ccccc1"
endpoint_value = "16.3 µM"

